test: molar heat capacity at constant pressure; conditions: 270.15 K; 101.33 kPa; Crystal; Small sample (50 mg) DSC
Entries annotated with measured molar heat capacity at constant pressure
Just the number please, in J/K/mol, no unit attached.

Record excerpt, results attached:
molecule	scale_unit	obs_value
O=C(O)Cc1cccs1	J/K/mol	147.2
c1csc(-c2cccs2)c1	J/K/mol	178.3
O=S1(=O)CCCOC1 [1,3-oxathiane-3,3-dioxide]	J/K/mol	134.5
CC(=O)c1ccsc1	J/K/mol	134.9
O=C(O)Cc1ccsc1	J/K/mol	152.6

Consider now this further molecule.
What does the data say about its molar heat capacity at constant pressure? Entry: O=S1(=O)CCSCC1
141.7

---

test: Molar enthalpy of transition or fusion; settings: Crystal; DSC
We use 4 kcal/mol as the dividing line for Molar enthalpy of transition or fusion: on or above the line is met, below is not met.

Hi team, for CC(=O)c1ccsc1 [3-acetylthiophene] , is the recorded Molar enthalpy of transition or fusion at or above 4 kcal/mol?
met

---

assay: molar heat capacity at constant pressure; details: 295.15 K; 101.33 kPa; Crystal; Small sample (50 mg) DSC
Entries annotated with measured molar heat capacity at constant pressure
Just the number please, in J/K/mol, no unit attached.

Record excerpt, results attached:
compound	molar heat capacity at constant pressure [J/K/mol]
O=S1(=O)CCCOC1 [1,3-oxathiane-3,3-dioxide]	146.3
O=S1(=O)CCSCC1 [1,4-dithiane sulfone]	151.8
O=C(O)Cc1cccs1 [2-thiopheneacetic acid]	157.6

What does the data say about its molar heat capacity at constant pressure? Entry: O=C(O)Cc1ccsc1 [3-thiopheneacetic acid]
166.6

Try this compound next: CC(=O)c1ccsc1 [3-acetylthiophene]
145

Try this compound next: c1csc(-c2cccs2)c1 [2,2'-bithienyl]
198.5

Try this compound next: O=C(O)c1ccc(C(=O)O)s1 [2,5-thiophenedicarboxylic acid]
166.4

---

test: molar heat capacity at constant pressure; conditions: 280.15 K; 101.33 kPa; Crystal; Small sample (50 mg) DSC
Entries annotated with measured molar heat capacity at constant pressure
Just the number please, in J/K/mol, no unit attached.

Record excerpt, results attached:
molecule	scale_unit	molar heat capacity at constant pressure
O=S1(=O)CCSCC1	J/K/mol	145.9
CC(=O)c1ccsc1	J/K/mol	138.7

What does the data say about its molar heat capacity at constant pressure? Entry: O=C(O)c1ccc(C(=O)O)s1
162.7

Try this molecule next: c1csc(-c2cccs2)c1
185.6

Try this molecule next: O=S1(=O)CCCOC1 [1,3-oxathiane-3,3-dioxide]
138.6

Try this molecule next: O=C(O)Cc1cccs1
150.9

Try this molecule next: O=C(O)Cc1ccsc1
158.5

---

assay: molar heat capacity at constant pressure; settings: 290.15 K; 101.33 kPa; Crystal; Small sample (50 mg) DSC
Entries annotated with measured molar heat capacity at constant pressure
Just the number please, in J/K/mol, no unit attached.

compound	readout_name	scale_unit	obs_value
O=C(O)Cc1cccs1 [2-thiopheneacetic acid]	molar heat capacity at constant pressure	J/K/mol	155.2
O=S1(=O)CCSCC1 [1,4-dithiane sulfone]	molar heat capacity at constant pressure	J/K/mol	149.8
O=C(O)Cc1ccsc1 [3-thiopheneacetic acid]	molar heat capacity at constant pressure	J/K/mol	163.6

What does the data say about its molar heat capacity at constant pressure? Entry: c1csc(-c2cccs2)c1 [2,2'-bithienyl]
192.9

Try this compound next: O=S1(=O)CCCOC1 [1,3-oxathiane-3,3-dioxide]
143.3

Try this compound next: O=C(O)c1ccc(C(=O)O)s1 [2,5-thiophenedicarboxylic acid]
164.7

Try this compound next: CC(=O)c1ccsc1 [3-acetylthiophene]
142.4

---

experiment: Molar enthalpy of transition or fusion; details: Crystal; DSC
Entries annotated with measured Molar enthalpy of transition or fusion
Just the number please, in kJ/mol, no unit attached.

Record excerpt, results attached:
compound	scale_unit	obs_value
O=C(O)Cc1ccsc1	kJ/mol	18.8
O=C(O)Cc1cccs1	kJ/mol	14
c1csc(-c2cccs2)c1	kJ/mol	16.5
O=S1(=O)CCSCC1	kJ/mol	26

What does the data say about its Molar enthalpy of transition or fusion? Entry: O=S1(=O)CCCOC1 [1,3-oxathiane-3,3-dioxide]
15.2
